FYI, the data here is from paper PMC11324666.

Molecular target: OAT4 (Homo sapiens, UniProt Q9NSA0)
Construct: V5 (from pLenti6/V5-DEST); expressed in transfected cells; host or cells: MDCK-1 (lentiviral transduction, blasticidin selection)
Sequence (Q9NSA0 1-550): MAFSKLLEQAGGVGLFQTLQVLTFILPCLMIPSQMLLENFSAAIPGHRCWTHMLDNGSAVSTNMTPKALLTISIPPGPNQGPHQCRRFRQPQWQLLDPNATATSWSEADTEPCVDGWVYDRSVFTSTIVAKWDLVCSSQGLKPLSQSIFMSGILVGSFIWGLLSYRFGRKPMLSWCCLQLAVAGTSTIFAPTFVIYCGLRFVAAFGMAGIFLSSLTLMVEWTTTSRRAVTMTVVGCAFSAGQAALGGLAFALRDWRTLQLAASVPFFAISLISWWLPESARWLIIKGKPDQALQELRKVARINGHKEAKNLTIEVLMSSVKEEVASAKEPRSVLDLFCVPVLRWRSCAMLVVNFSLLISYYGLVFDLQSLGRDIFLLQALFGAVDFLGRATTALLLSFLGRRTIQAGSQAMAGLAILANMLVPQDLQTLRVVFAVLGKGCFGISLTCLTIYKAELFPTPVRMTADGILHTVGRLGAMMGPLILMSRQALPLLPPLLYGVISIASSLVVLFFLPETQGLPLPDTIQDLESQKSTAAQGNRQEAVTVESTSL
Assay: MDCK-OAT4 TH uptake assay with 125I-T4 tracer
Assay type: cell-based
Settings: concentration that inhibits 125I-T4 uptake by 20%; 10 nM T4, 20 min; brackets = 95% CI
metric: T4 uptake inhibition BMC20 (M), [CI]

Use these answered entries as a reference point.
- compound: "O=C(O)C(F)(F)C(F)(F)C(F)(F)C(F)(F)C(F)(F)C(F)(F)C(F)(F)F [Perfluorooctanoic acid]"
  T4 uptake inhibition BMC20 (M), [CI]: "1.38E−06 [4.27E−07; 4.44E−06] M"
- compound: "CO[C@H]1/C=C/O[C@@]2(C)Oc3c(C)c(O)c4c(O)c(c(/C=N/N5CCN(C)CC5)c(O)c4c3C2=O)NC(=O)/C(C)=C\\C=C\\[C@H](C)[C@H](O)[C@@H](C)[C@@H](O)[C@@H](C)[C@H](OC(C)=O)[C@@H]1C [Rifampicin, reference compound]"
  T4 uptake inhibition BMC20 (M), [CI]: "1.02E−05 [4.85E−06; 2.14E−05] M"
- compound: "CCCN(CCC)S(=O)(=O)c1ccc(C(=O)O)cc1 [Probenecid, reference compound]"
  T4 uptake inhibition BMC20 (M), [CI]: "3.65E−05 [2.69E−05; 4.61E−05] M"
- compound: "CC1(C)C(/C=C/C=C/C=C/C=C2\\N(CCCCS(=O)(=O)O)c3ccc4ccccc4c3C2(C)C)=[N+](CCCCS(=O)(=O)[O-])c2ccc3ccccc3c21 [Indocyanine green, reference compound]"
  T4 uptake inhibition BMC20 (M), [CI]: "1.68E−05 [1.20E−05; 2.33E−05] M"
- compound: "Oc1c(Cl)c(Cl)c(Cl)c(Cl)c1Cl [Pentachlorophenol]"
  T4 uptake inhibition BMC20 (M), [CI]: "2.65E−05 [2.17E−05; 3.23E−05] M"
- compound: "Oc1ccc(C(c2ccc(O)cc2)(C(F)(F)F)C(F)(F)F)cc1 [Bisphenol AF, Bisphenol-AF]"
  T4 uptake inhibition BMC20 (M), [CI]: "5.39E−06 [1.65E−06; 1.76E−05] M"

Reported T4 uptake inhibition BMC20 (M), [CI] for OAT4 (Homo sapiens, UniProt Q9NSA0), given CC(C)(c1cc(Br)c(O)c(Br)c1)c1cc(Br)c(O)c(Br)c1 [Tetrabromobisphenol A, Tetrabromobisphenol-A] ?
6.49E−07 [4.32E−07; 9.74E−07] M

Reported T4 uptake inhibition BMC20 (M), [CI] for OAT4 (Homo sapiens, UniProt Q9NSA0), given O=c1c(O)c(-c2ccc(O)c(O)c2)oc2cc(O)cc(O)c12 [Quercetin] ?
1.23E−05 [4.77E−06; 3.16E−05] M

Reported T4 uptake inhibition BMC20 (M), [CI] for OAT4 (Homo sapiens, UniProt Q9NSA0), given O=C(O)Cc1ccccc1Nc1c(Cl)cccc1Cl [Diclofenac, reference compound] ?
3.22E−06 [6.39E−07; 1.62E−05] M

Reported T4 uptake inhibition BMC20 (M), [CI] for OAT4 (Homo sapiens, UniProt Q9NSA0), given O=C1OC(c2ccc(O)c(S(=O)(=O)O)c2)(c2ccc(O)c(S(=O)(=O)O)c2)c2c(Br)c(Br)c(Br)c(Br)c21 [Bromosulfophthalein, reference compound] ?
7.25E−08 [3.85E−08; 1.36E−07] M

Reported T4 uptake inhibition BMC20 (M), [CI] for OAT4 (Homo sapiens, UniProt Q9NSA0), given O=S(=O)(O)C(F)(F)C(F)(F)C(F)(F)C(F)(F)C(F)(F)C(F)(F)C(F)(F)C(F)(F)F [Perfluorooctanesulfonic acid] ?
1.44E−06 [4.08E−07; 5.05E−06] M
